This listing pairs binders with measured fold change of affinity.
- Tested System: T1, Human CD137 ECD (human)
- T1 construct: entry includes C-terminal His-tag and biotin acceptor peptide; also called human CD137 extracellular domain; 4-1BB
- T1 sequence (chain, as listed by the source limits assumed): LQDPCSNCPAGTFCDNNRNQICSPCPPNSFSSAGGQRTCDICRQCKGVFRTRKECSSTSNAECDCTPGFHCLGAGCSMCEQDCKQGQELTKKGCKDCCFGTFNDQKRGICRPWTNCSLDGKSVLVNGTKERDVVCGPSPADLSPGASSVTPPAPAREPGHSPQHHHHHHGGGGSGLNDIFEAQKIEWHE
- Protocol Notes: Biacore SPR, vs parent H183/L072
The reply should contain only the number, in fold.

Solved cases (2 shown):
Binder: H183/L072 VL S52Q (antibody, name in Kabat numbering, V domains shown, Dual-Ig) VH: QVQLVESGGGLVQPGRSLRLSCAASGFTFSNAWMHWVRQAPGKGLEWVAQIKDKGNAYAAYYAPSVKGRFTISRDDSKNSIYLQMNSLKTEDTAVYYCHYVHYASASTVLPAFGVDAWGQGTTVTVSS VL: DIVMTQSPLSLPVTPGEPASISCQASQELVHMNRNTYLHWYQQKPGQAPRLLIYKVQNRFPGVPDRFSGSGSGTDFTLKISRVEAEDVGVYYCAQGTSVPFTFGQGTKLEIK
Reported Endpoint: fold change of affinity
Readout Value: 1
//
Binder: H183/L072 VL T31R (antibody, name in Kabat numbering, V domains shown, Dual-Ig) VH: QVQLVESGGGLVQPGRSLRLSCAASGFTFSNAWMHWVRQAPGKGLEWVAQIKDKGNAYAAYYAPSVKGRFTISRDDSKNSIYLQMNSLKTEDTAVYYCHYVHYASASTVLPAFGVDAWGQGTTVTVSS VL: DIVMTQSPLSLPVTPGEPASISCQASQELVHMNRNRYLHWYQQKPGQAPRLLIYKVSNRFPGVPDRFSGSGSGTDFTLKISRVEAEDVGVYYCAQGTSVPFTFGQGTKLEIK
Reported Endpoint: fold change of affinity
Readout Value: 0.4

Lab note: next binder to report on.
Ask | What value of measured fold change of affinity is listed for H183/L072 VL P56G (antibody, name in Kabat numbering, V domains shown, Dual-Ig) VH: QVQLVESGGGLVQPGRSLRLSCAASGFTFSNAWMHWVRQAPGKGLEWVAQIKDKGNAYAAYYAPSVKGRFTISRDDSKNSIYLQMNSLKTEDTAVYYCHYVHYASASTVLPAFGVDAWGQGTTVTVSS VL: DIVMTQSPLSLPVTPGEPASISCQASQELVHMNRNTYLHWYQQKPGQAPRLLIYKVSNRFGGVPDRFSGSGSGTDFTLKISRVEAEDVGVYYCAQGTSVPFTFGQGTKLEIK ?
Reply | 0.1
